src = patent US20130289246A1

- ASSAY SYSTEM: soluble 2004 H5 HA (Influenza A virus (H5N1, 2004))
- PROTOCOL NOTES: ELISA, supernate
OD values for the binders below.

>  <BINDER>
mAb 6K14 (antibody, V domains shown) VH: EVQLVESGAEVKKPGASVKVSCKASGYTFTSFDINWVRQAPGQGLEWMGWMTPTSGKTGYAQKFQGRITMTRNTSINTAYMELSSLRSEDTAVYFCARGPERRTTIFDVILDWFDPWGQGTLVTVS VL: DIVMTQSPFSLSLSPGERATLSCRASQSISNYLAWYQQKPGQAPRLLIYDSSNRATGVPARFSGSGSGTDFTLTISSLEPEDFAVYYCQQRSNWMYTFGQGTKVEIKR

>  <UNITS OF MEASURE>
OD

>  <OD>
1.12

$$$$
>  <BINDER>
mAb 3J10 (antibody, V domains shown) VH: EVQLVESGGGVVQPGRSLRLSCAASGFSFSNYAMHWVRQAPGKGLEWVALISFDGSDKYYADSVKGRFTMSRDNSKNTLYLQMNSLRAEDTAVYYCARDEPYCGGDCFAFDVWGQGTMVTVS VL: QSVLTQPPSVSGAPGQRVTISCTGSSSNIGAGYDVHWYQQLPGTAPKLLIYANNNRPSGVPDRFSGSKSGTSASLAITGLQAEDEADYYCQSYDSSLSGGVFGTGTTVTVLG

>  <UNITS OF MEASURE>
OD

>  <OD>
0.075

$$$$
>  <BINDER>
mAb 6J24 (antibody, V domains shown) VH: EVQLVESGGGLVQPGRSLRLSCVGSGFNFDGYAMQWVRQVPGKGLEWVSGISWHSDSTGYADSVRGRFTISRDNAKNSLYLQMDSLRPEDTAFYYCGKSIGHVGGSYRHPIDYWGQGTLVTVS VL: DIQLTQSPSSLSASVGDRVTITCRASQGITDYLAWYQQKPGTIPKLLIYAASTLQSGVPSRFSGGGYGTDFTLTISSLQPEDVATYYCQKYNSAPLTFGGGTKVEIKR

>  <UNITS OF MEASURE>
OD

>  <OD>
0.379

$$$$
